PRMT1 (10-352) (Homo sapiens, UniProt Q99873) IC50 data
Sequence (Q99873 10-352 isoform Q99873-3, species assumed): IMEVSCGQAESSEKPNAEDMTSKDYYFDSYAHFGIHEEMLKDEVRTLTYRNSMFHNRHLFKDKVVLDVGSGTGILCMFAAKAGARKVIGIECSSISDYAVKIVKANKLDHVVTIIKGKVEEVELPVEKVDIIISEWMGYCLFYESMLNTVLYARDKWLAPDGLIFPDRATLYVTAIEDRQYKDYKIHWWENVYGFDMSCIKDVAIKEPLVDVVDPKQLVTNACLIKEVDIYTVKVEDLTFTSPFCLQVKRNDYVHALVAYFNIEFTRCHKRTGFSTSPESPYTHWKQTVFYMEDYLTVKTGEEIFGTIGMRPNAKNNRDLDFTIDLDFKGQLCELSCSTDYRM
endpoint name: IC50 (µM)

{"molecule": "CCCN[C@@H](CC[C@H](N)C(=O)O)C[C@H]1O[C@@H](n2cnc3c(N)ncnc32)[C@H](O)[C@@H]1O [Compound 102]", "experimental target": "PRMT1 (10-352) (Homo sapiens, UniProt Q99873)", "unit string": "µM", "IC50": 9.5}

[1] CNC(CCC(N)C(=O)O)CC1OC(n2cnc3c(N)ncnc32)C(O)C1O (centres unmarked) [Compound 101]
[2] CCNC(CCC(N)C(=O)O)CC1OC(n2cnc3c(N)ncnc32)C(O)C1O (centres unmarked) [Compound 100]
[3] Nc1ncnc2c1ncn2C1OC(CC(CCC(N)C(=O)O)NCCNCc2ccccc2)C(O)C1O (centres unmarked) [Compound 106]
Query block: Ordering criterion: IC50; begin with the maximum. Put the labels in the requested order and write them down.
Result block: 1, 2, 3
(1: 83.9 µM, 2: 55 µM, 3: 3.7 µM)

---

Target: GLP1 (951-1235) (Homo sapiens)
Sequence (Q9H9B1 982-1266 limits assumed): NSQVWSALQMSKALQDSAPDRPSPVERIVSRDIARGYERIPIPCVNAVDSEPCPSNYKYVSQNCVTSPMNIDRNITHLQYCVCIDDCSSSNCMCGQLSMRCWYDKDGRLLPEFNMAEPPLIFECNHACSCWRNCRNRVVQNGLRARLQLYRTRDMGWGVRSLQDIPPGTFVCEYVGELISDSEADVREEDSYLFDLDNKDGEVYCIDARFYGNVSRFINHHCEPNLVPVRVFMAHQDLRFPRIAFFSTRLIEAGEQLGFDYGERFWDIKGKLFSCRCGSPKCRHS
Assay: biochemical
endpoint name: pIC50
To interpret pIC50, take it as minus log10 of a concentration measured in moles per litre.

Query block: # returns recorded pIC50 (system: GLP1 (951-1235) (Homo sapiens)) for Nc1ncnc2c1ncn2[C@@H]1O[C@H](CSCC[C@H](N)C(=O)O)[C@@H](O)[C@H]1O [SAH, S-adenosyl homocysteine, reference compound]
Result block: 6.15

---

Target: SUV39H2 (112-410) (Homo sapiens, UniProt Q9H5I1)
Sequence (Q9H5I1 112-410): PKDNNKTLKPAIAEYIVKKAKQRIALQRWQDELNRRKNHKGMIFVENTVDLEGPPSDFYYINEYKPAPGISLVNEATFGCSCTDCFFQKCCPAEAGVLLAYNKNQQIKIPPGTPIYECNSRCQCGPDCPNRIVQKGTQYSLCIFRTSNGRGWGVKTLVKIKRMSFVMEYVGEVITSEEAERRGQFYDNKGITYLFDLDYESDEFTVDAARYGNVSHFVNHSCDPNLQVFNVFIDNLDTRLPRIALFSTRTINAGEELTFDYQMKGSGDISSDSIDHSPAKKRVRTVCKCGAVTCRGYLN
pIC50: −log10 of the molar value.
endpoint name: pIC50

Worked examples follow.
{"compound": "NC[C@@H](CC[C@H](N)C(=O)O)C[C@H]1O[C@@H](n2cnc3c(N)ncnc32)C(O)[C@H]1O (some centres unmarked)", "endpoint name": "pIC50", "result value": 4.61}
{"compound": "CNC(CCC(N)C(=O)O)CC1OC(n2cnc3c(N)ncnc32)C(O)C1O (centres unmarked)", "endpoint name": "pIC50", "result value": 4.36}
{"compound": "Nc1ncnc2c1ncn2C1OC(CC(N)CCCC(N)C(=O)O)C(O)C1O (centres unmarked)", "endpoint name": "pIC50", "result value": 4.45}
{"compound": "CCCN[C@@H](CC[C@H](N)C(=O)O)C[C@H]1O[C@@H](n2cnc3c(N)ncnc32)[C@H](O)[C@@H]1O", "endpoint name": "pIC50", "result value": 5.01}

[A] COC(=O)C(N)CCC(CC1OC(n2cnc3c(N)ncnc32)C(O)C1O)NCCNC(=N)N (centres unmarked)
[B] Nc1ncnc2c1ncn2[C@@H]1O[C@H](C[C@H](CC[C@H](N)C(=O)O)CNCc2ccccc2)[C@H](O)C1O (some centres unmarked)
[C] Nc1ncnc2c1ncn2C1OC(CC(CCC(N)C(=O)O)NCCNCCCCC(N)C(=O)O)C(O)C1O (centres unmarked)
Query block: Ascending by pIC50, please: list the compounds accordingly. Put the labels in the requested order and write them down.
Result block: A, C, B
(A: 4.48, C: 4.80, B: 5.00)

---

Target: CARM1 (19-608) (Homo sapiens)
Construct: CARM1 (19-608)
Assay: Filter-paper methylation assay, CARM1
Format: biochemical
pIC50: −log10 of the molar value.
endpoint name: pIC50

[a] NCCNC(CCC(N)C(=O)O)CC1OC(n2cnc3c(N)ncnc32)C(O)C1O (centres unmarked)
[b] CNC(CCC(N)C(=O)O)CC1OC(n2cnc3c(N)ncnc32)C(O)C1O (centres unmarked)
Query block: Lab log: flag the item ( a or b ) with the smaller pIC50 figure. Refer to your chosen entry by its label in the reply.
Result block: b
(b: 5.77, a: 7.05)

---

pIC50: −log10 of the molar value.
PRMT3 (211-531) (Homo sapiens, UniProt O60678) pIC50 data
Sequence (O60678 211-531): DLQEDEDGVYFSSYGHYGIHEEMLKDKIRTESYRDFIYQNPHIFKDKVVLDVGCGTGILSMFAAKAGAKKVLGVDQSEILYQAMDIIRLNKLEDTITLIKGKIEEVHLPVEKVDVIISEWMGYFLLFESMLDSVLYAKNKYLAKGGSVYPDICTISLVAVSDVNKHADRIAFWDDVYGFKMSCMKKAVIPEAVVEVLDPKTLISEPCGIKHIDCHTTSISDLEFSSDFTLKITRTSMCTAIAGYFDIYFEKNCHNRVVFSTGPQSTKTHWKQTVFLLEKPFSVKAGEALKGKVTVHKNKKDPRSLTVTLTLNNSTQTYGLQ
endpoint name: pIC50

{"molecule": "CCCN[C@@H](CC[C@H](N)C(=O)OC)C[C@H]1O[C@@H](n2ccc3c(N)ncnc32)C(O)C1O (stereo partly drawn) [Compound 116e]", "endpoint name": "pIC50", "result value": 5.01}
{"molecule": "NC[C@@H](CC[C@H](N)C(=O)O)C[C@H]1O[C@@H](n2cnc3c(N)ncnc32)C(O)[C@H]1O (stereo partly drawn)", "endpoint name": "pIC50", "result value": 4.88}

---

PRMT1 (10-352) (Homo sapiens, UniProt Q99873) IC50 data

{"compound": "NC(=O)[C@@H](N)CC[C@H](CNCC(F)(F)F)C[C@H]1O[C@@H](n2cnc3c(N)ncnc32)[C@H](O)[C@@H]1O [Compound 205]", "result value": "~50 µM"}
{"compound": "NC(=O)C(N)CCC(CC1OC(n2cnc3c(N)ncnc32)C(O)C1O)NCc1ccccc1 (stereo not shown) [Compound 111]", "result value": "> 100 µM"}
{"compound": "Nc1ncnc2c1ncn2C1OC(CC(CCC(N)C(=O)O)NCc2ccccc2)C(O)C1O (stereo not shown) [Compound 110]", "result value": "> 100 µM"}

As a next step, examine the compound that follows.
Query block: What value of IC50 has been recorded for this entry: CCCN[C@@H](CC[C@H](N)C(=O)OC)C[C@H]1O[C@@H](n2ccc3c(N)ncnc32)C(O)C1O (stereo partly shown) [Compound 116e]
Result block: > 100 µM

---

SUV39H2 (112-410) (Homo sapiens) IC50 data

{"compound": "NC(=O)C(N)CCC(CC1OC(n2cnc3c(N)ncnc32)C(O)C1O)NCc1ccccc1 (stereo not shown) [Compound 111]", "IC50": "> 100 µM"}
{"compound": "Nc1ncnc2c1ncn2C1OC(CC(CCC(N)C(=O)O)NCc2ccccc2)C(O)C1O (stereo not shown) [Compound 110]", "IC50": "> 100 µM"}
{"compound": "NC(=O)[C@@H](N)CC[C@@H](C[C@H]1O[C@@H](n2cnc3c(NC(=O)c4ccccc4)ncnc32)C(O)[C@H]1O)NCC(F)(F)F (stereo partly shown) [Compound 107]", "IC50": "> 100 µM"}

As a next step, examine the compound that follows.
Query block: What value of IC50 has been recorded for this entry: CCCN[C@@H](CC[C@H](N)C(=O)OC)C[C@H]1O[C@@H](n2ccc3c(N)ncnc32)C(O)C1O (stereo partly shown) [Compound 116e]
Result block: > 100 µM

---

Molecular target: CARM1 (19-608) (Homo sapiens, UniProt Q86X55)
Construct: CARM1 (19-608)
Sequence (Q86X55 19-608): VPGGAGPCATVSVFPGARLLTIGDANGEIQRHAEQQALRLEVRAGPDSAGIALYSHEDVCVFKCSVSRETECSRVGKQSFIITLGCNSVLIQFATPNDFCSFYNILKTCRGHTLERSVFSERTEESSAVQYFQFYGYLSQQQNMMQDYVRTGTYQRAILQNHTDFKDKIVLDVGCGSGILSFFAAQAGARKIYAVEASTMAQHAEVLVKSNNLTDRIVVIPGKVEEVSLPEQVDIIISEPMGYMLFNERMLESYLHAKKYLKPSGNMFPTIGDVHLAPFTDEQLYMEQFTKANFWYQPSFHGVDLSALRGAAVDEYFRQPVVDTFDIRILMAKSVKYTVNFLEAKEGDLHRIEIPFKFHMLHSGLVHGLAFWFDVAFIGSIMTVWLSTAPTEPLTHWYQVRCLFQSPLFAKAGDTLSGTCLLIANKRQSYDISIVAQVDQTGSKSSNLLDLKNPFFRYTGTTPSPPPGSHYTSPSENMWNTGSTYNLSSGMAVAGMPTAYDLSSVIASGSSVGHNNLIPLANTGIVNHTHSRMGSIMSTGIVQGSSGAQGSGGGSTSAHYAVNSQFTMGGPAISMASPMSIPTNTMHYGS
Assay: Filter-paper methylation assay, CARM1
Type: biochemical
pIC50: −log10 of the molar value.
endpoint name: pIC50

{"compound": "COC(=O)C(N)CCC(CC1OC(n2cnc3c(N)ncnc32)C(O)C1O)NCCNC(=N)N (stereo not drawn) [Compound 109]", "pIC50": 7.30}
{"compound": "Nc1ncnc2c1ncn2C1OC(CC(CCC(N)C(=O)O)NCc2ccccc2)C(O)C1O (stereo not drawn) [Compound 110]", "pIC50": 4.65}
{"compound": "Nc1ncnc2c1ncn2[C@@H]1O[C@H](C[C@H](CC[C@H](N)C(=O)O)CNCc2ccccc2)[C@H](O)C1O (stereo partly drawn) [Compound 202]", "pIC50": 7.05}

[a] Nc1ncnc2c1ncn2C1OC(CC(CCC(N)C(=O)O)NCCNCc2ccccc2)C(O)C1O (stereo not drawn) [Compound 106]
[b] CCCN[C@@H](CC[C@H](N)C(=O)OC)C[C@H]1O[C@@H](n2ccc3c(N)ncnc32)C(O)C1O (stereo partly drawn) [Compound 116e]
Query block: Which shows the larger pIC50 value: a or b ? Refer to your chosen entry by its label in the reply.
Result block: a
